Data provenance: PubChem BioAssay AID179

test system: CEM cells HIV-1 protection, formazan growth assay; assay: NCI AIDS Antiviral Assay; settings: measured here: growth of uninfected CEM cells
reported_metric: IC50

So what's the measured IC50 for this one? `CC1(C)CC(=O)C(/C=N/c2nc(-c3ccccc3)cs2)=C(O)C1`
> 200 µM

Can you handle `Cc1nn(C)c(=O)[nH]c1=O` next?
> 1780 µM

Can you handle CC(O)CSP(=S)(Oc1ccccc1)Oc1ccccc1 (centres undefined) next?
> 39.8 µM

Can you handle COC(=O)CCC(C)C1CCC2[C@@H]3CC[C@@H]4CC(CSC(C)=O)CC[C@]4(C)C3CC[C@]12C (some centres undefined) next?
> 29.5 µM

* * *

test system: CEM cells HIV-1 protection, formazan growth assay; test: NCI AIDS Antiviral Assay;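 active = compounds giving half or more protection of infected cells from virus-caused growth loss, again on retest; inactive = the rest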
Mark one answer only. Choices: true (1) for active, false (0) for inactive

// param item: CCOC(=O)N1N=C(c2ccccc2)OC2(N3CCOCC3)CCC(C(C)(C)C)CC12 (centres undefined) ; yields the recorded call
true (1)

Can you handle `CCCCCCCC/C=C\CCCCCCCC(=O)NCCN(CCN)C(=O)CCCCCCC/C=C\CCCCCCCC` next?
false (0)

Can you handle `[N-]=[N+]=Nc1nc2ccccc2c(N=[N+]=[N-])c1Cl` next?
false (0)

Can you handle `COc1cc(/C=C/C(=O)O)ccc1OS(=O)(=O)O` next?
false (0)

Can you handle `CCOC(=O)NC(C(F)(F)F)(C(F)(F)F)P(=O)(OCC)OCC` next?
false (0)

Can you handle `O=C(CC(c1ccccc1)c1ccccc1)NCCCCN1CCCCCCC1` next?
false (0)

Can you handle CCOC(=O)CCC(NC(=O)OCc1ccccc1)C(=O)NC(CCC(=O)OCC)C(=O)NC(CCC(=O)OCC)C(=O)NNC(=O)OC(C)(C)C (centres undefined) next?
false (0)

Can you handle CC(=O)OCC1OC(n2c3c(c(-c4ccco4)c(C#N)c2=S)CCC3)C(OC(C)=O)C(OC(C)=O)C1OC(C)=O (centres undefined) next?
false (0)

Can you handle `N#CCCN(CCNc1ccccc1)C(=O)Nc1ccc(NC(=O)N(CCC#N)CCNc2ccccc2)cc1` next?
false (0)

Can you handle COc1ccc(N2C(=O)C3c4[nH]c5ccc(OCc6ccccc6)cc5c4C4CCC(C(C)(C)C)CC4C3C2=O)cc1 (centres undefined) next?
false (0)

Can you handle CC(C)CC(C[C@@H](O)[C@H](Cc1ccccc1)NC(=O)O[C@H]1CCOC1)S(=O)(=O)c1ccccc1 (some centres undefined) next?
true (1)

Can you handle `CC(SCC(=O)O)=[N+]1CCCCC1` next?
false (0)

Can you handle `CC(=O)Nc1ccc(S(=O)(=O)c2ccc(NC(C)=O)cc2)cc1` next?
false (0)

Can you handle `CS(=O)(=O)OCCN1CCN(C(=O)c2cccc3c(Nc4ccc(S(N)(=O)=O)cc4)c4ccccc4nc23)CC1` next?
false (0)

Can you handle C#CCCCCC#CC1CCCC1C1=CC(=O)c2ccccc21 (centres undefined) next?
false (0)

Can you handle `O=[N+]([O-])c1cccnc1SSc1ncccc1[N+](=O)[O-]` next?
false (0)

Can you handle CC(C)CC1NC(=O)CCC(NC(=O)C(Cc2ccc(O)cc2)NC(=O)OCc2ccccc2)C(=O)NC(Cc2ccccc2)C(=O)NC(Cc2ccccc2)NC1=O (centres undefined) next?
false (0)

Can you handle `O=[N+]([O-])/C(C(Cl)=C(Cl)Cl)=C1\NCCS1` next?
false (0)

Can you handle `C1COC(N2CC3CCC(CC3)C2)=N1` next?
false (0)

Can you handle CC(C)(C)C(=O)OCOP(=O)(OCOC(=O)C(C)(C)C)OCC1OC(n2cc(F)c(=O)[nH]c2=O)CC1O (centres undefined) next?
false (0)

Can you handle `Nn1c(CNc2ccc(-c3nnc(Nc4ccc(Cl)cc4)n3N)cc2)nnc1Nc1ccc(Cl)cc1` next?
false (0)

Can you handle `Nc1cccc(C#Cc2cccc(C#Cc3cccc(N)n3)n2)n1` next?
false (0)

Can you handle `COC(NC(=O)Nc1ccccc1C)(C(F)(F)F)C(F)(F)F` next?
false (0)

Can you handle CC1(c2ccccc2)CCN(C2CC2)CO1 (centres undefined) next?
false (0)

Can you handle `CC(=O)c1sc2c(c1OC(=O)c1ccco1)c(=O)n(-c1ccccc1)c(=S)n2-c1ccccc1` next?
false (0)

Can you handle COc1cc(C2C(Cl)C(=O)N2n2cnc3ccccc3c2=O)cc(OC)c1OC (centres undefined) next?
false (0)

Can you handle `CO/C(=N\N=C\c1ccccc1F)c1ccncc1` next?
false (0)

Can you handle `CCOP(=O)(OCC)/C(C#N)=C/c1ccc([N+](=O)[O-])cc1` next?
false (0)

Can you handle `CC(=O)C(=[N+]=[N-])C(=O)N1CCOC1=O` next?
false (0)

Can you handle Cc1ccc(SCC(CF)OC(C)n2cnc3c(Cl)nc(N)nc32)cc1 (centres undefined) next?
false (0)

Can you handle `C[N+](C)(N)c1nc(N)c(C#N)c(C#N)c1C#N` next?
false (0)

Can you handle `NC(=S)NC/C=C/Cl` next?
false (0)

Can you handle `Cc1ccc2nc(C(C)C)c(=O)[nH]c2c1` next?
false (0)

Can you handle `CN(NC(=O)CCCl)C1=NCCCCN1` next?
false (0)

* * *

Kindly state pEC50 for each of the entries shown.
system: CEM cells HIV-1 protection, formazan growth assay; assay: NCI AIDS Antiviral Assay
pEC50: −log10 of the molar value.

So what's the measured pEC50 for this one? CS(=O)(=O)OCC1OC(n2ccc(NC(=O)c3ccccc3)nc2=O)CC1OS(C)(=O)=O (centres undefined)
< 3.70

Can you handle `COc1ccc2c(c1)C(=O)Cc1ccccc1CC2` next?
< 4.40

Can you handle `O=[N+]([O-])c1cccc(C2c3ccccc3Oc3ccccc32)c1` next?
< 3.70

Can you handle `S=C1N=C(Cl)/C(=C\c2ccco2)N1` next?
< 3.70

* * *

system: CEM cells HIV-1 protection, formazan growth assay; test: NCI AIDS Antiviral Assay; conditions: measured here: growth of uninfected CEM cells
pIC50: −log10 of the molar value.
Kindly state pIC50 for each of the entries shown.

So what's the measured pIC50 for this one? COC(=O)C1(C)NCCc2c1[nH]c1ccccc21 (stereo not drawn)
< 3.48

Can you handle O=C1C=CC2O[C@H](c3ccccc3)[C@H](O)C2O1 (stereo partly drawn) next?
5.27

Can you handle `CNP1(NC)=NP(NC)(NC)=NP(NC)(NC)=NP(NC)(NC)=N1` next?
< 5.46

* * *

system: CEM cells HIV-1 protection, formazan growth assay; experiment: NCI AIDS Antiviral Assay;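 active means compounds giving half or more protection of infected cells from virus-caused growth loss, again on retest; inactive means the rest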
Mark one answer only. Choices: 1 (yes) = active, 0 (no) = inactive

// param item: `CCOC(=O)NC1=C(N2CC2)C(=O)C(NC(=O)OCC)=C(N2CC2)C1=O` ; yields the recorded call
0 (no)

Can you handle `O=c1[nH]c2ccsc2c(=O)n1COCc1ccccc1` next?
0 (no)

Can you handle `COc1ccc(CN=C(N)N)c2ccccc12` next?
0 (no)

Can you handle CC1(C)C2CCC3(OCCO3)C1C(O)C2 (configuration not stated) next?
0 (no)

Can you handle Oc1ccc(/C=C/c2cc(O)cc3c2C(c2cc(O)cc4c2C(c2cc(O)cc(O)c2)C(c2ccc(O)cc2)O4)C(c2ccc(O)cc2)O3)cc1 (configuration not stated) next?
0 (no)

Can you handle Nc1nc2c(ncn2C2COC(CO)O2)c(=O)[nH]1 (configuration not stated) next?
1 (yes)

Can you handle CCCCCCCCCCOCC(COCCOCC(COCCCCCCCCCC)OCCCS(=O)(=O)O)OCCCS(=O)(=O)O (configuration not stated) next?
0 (no)

* * *

system: CEM cells HIV-1 protection, formazan growth assay; experiment: NCI AIDS Antiviral Assay; details: measured here: growth of uninfected CEM cells
pIC50: −log10 of the molar value.
reported_metric: pIC50

Give pIC50 (CEM cells HIV-1 protection, formazan growth assay) of the following compound: `CN1C(=O)N(C)[C@@H]2CC(=O)c3ccc(C(F)(F)F)cc3N2C1=O`
< 3.54

Can you handle `N#CCCN(c1ccc(C=O)cc1)S(=O)(=O)c1ccccc1` next?
< 4.64

Can you handle COc1ccc(/C=c2/sc3n(c2=O)C(c2ccccc2)C2(O)CCCCC2N=3)cc1 (stereo not given) next?
< 3.70

Can you handle `CCOc1ncn(-c2ccc(NC(=S)Nc3cccc(O)c3)cc2)n1` next?
< 3.70

Can you handle O=C(N/S(=N/S(=O)(=O)c1ccc(Br)cc1)C(Cl)(Cl)Cl)c1ccccc1 (stereo not given) next?
< 3.70

Can you handle `N#CCCN(C(=O)Nc1ccc(NC(=O)N(CCC#N)c2ccccc2)cc1)c1ccccc1` next?
< 3.70

Can you handle `COc1ccc(S(=O)(=O)N/N=C/CN2C(=O)c3ccccc3C2=O)cc1` next?
< 3.87

Can you handle CCCCC/C=C/C/C=C/CCCCCCCC(=O)OCC(COC1OC(CS(=O)(=O)O)C(O)C(O)C1O)OC(=O)CCCCCCC/C=C/C/C=C/CCCCC (stereo not given) next?
< 4.56

Can you handle `CCCCCCCCCCCCCC1=C(O)C(=O)C(CC2=C(O)C(=O)C(CCCCCCCCCCCCC)=C(O)C2=O)=C(O)C1=O` next?
< 4.77

Can you handle `C=CCNC(=S)Nc1ccccn1` next?
< 3.70
